Test system: Staphylococcus epidermidis
Assay Comment: In vitro antibacterial activity against Staphylococcus epidermis (S.e.1) […].
Format: functional
Here the recorded MIC is given for each entry.

[
  {
    "Input Smiles": "CC(=O)NC[C@H]1CN(c2ccc(N3CCN(C(=O)c4cc(OCCF)no4)CC3)c(F)c2)C(=O)O1",
    "Operator": "=",
    "MIC, mg/L": 1
  },
  {
    "Input Smiles": "CC(=O)NC[C@H]1CN(c2ccc(N3CCN(Cc4cc(/C=C/c5ccccc5)no4)CC3)c(F)c2)C(=O)O1",
    "Operator": "=",
    "MIC, mg/L": 2
  },
  {
    "Input Smiles": "CC(=O)NC[C@H]1CN(c2ccc(N3CCN(C(=O)c4cc(C(=O)O)no4)CC3)c(F)c2)C(=O)O1",
    "Operator": ">",
    "MIC, mg/L": 32
  },
  {
    "Input Smiles": "CC(=O)NC[C@H]1CN(c2ccc(N3CCN(C(=O)c4cc(-c5cccs5)no4)CC3)c(F)c2)C(=O)O1",
    "Operator": "=",
    "MIC, mg/L": 0.25
  }
]
